Where these numbers come from: patent US20120071475A1

# Tested on: CYP1A2, CYP2C9, CYP2C19, CYP2D6 and CYP3A4 (one value for the five species)
# assay-text: CYP inhibition test, five CYP species together (5CYPs_IC50; pooled human liver microsome)
# Assay type: in vitro ADME
# condition-info: human, microsomes
observable: IC50 at 15 min

[[record]]
compound = "COc1cc(N2CCc3nc(NC(=O)Nc4ccccc4C(C)=O)sc3C2)nc(OC)n1"
tested_target = "CYP1A2, CYP2C9, CYP2C19, CYP2D6 and CYP3A4 (one value for the five species)"
observable = "IC50 at 15 min"
result = "≥ 10 µM"

[[record]]
compound = "COc1cc(N2CCc3nc(NC(=O)Nc4ccccc4CNC(C)C)sc3C2)nc(OC)n1"
tested_target = "CYP1A2, CYP2C9, CYP2C19, CYP2D6 and CYP3A4 (one value for the five species)"
observable = "IC50 at 15 min"
result = "> 20 µM"

[[record]]
compound = "COc1cc(N2CCc3nc(NC(=O)Nc4ccccc4C(=O)N4CCOCC4)sc3C2)nc(OC)n1"
tested_target = "CYP1A2, CYP2C9, CYP2C19, CYP2D6 and CYP3A4 (one value for the five species)"
observable = "IC50 at 15 min"
result = "> 20 µM"

[[record]]
compound = "COc1nc(Cl)cc(N2CCc3nc(NC(=O)Nc4ccccc4C(=O)NC(C)C(F)(F)F)sc3C2)n1 (stereo not drawn)"
tested_target = "CYP1A2, CYP2C9, CYP2C19, CYP2D6 and CYP3A4 (one value for the five species)"
observable = "IC50 at 15 min"
result = "≥ 10 µM"

[[record]]
compound = "CC(C)NC(=O)c1ccccc1NC(=O)Nc1nc2c(s1)CN(c1ccc(C#N)cc1)CC2"
tested_target = "CYP1A2, CYP2C9, CYP2C19, CYP2D6 and CYP3A4 (one value for the five species)"
observable = "IC50 at 15 min"
result = "≥ 10 µM"

[[record]]
compound = "COc1nc(Cl)cc(N2CCc3nc(NC(=O)Nc4ccccc4C(=O)NC4CCOC4)sc3C2)n1 (stereo not drawn)"
tested_target = "CYP1A2, CYP2C9, CYP2C19, CYP2D6 and CYP3A4 (one value for the five species)"
observable = "IC50 at 15 min"
result = "≥ 10 µM"

[[record]]
compound = "COc1cncc(C2CCc3nc(NC(=O)Nc4ccccc4C(=O)NC(C)C)sc3C2)c1 (stereo not drawn)"
tested_target = "CYP1A2, CYP2C9, CYP2C19, CYP2D6 and CYP3A4 (one value for the five species)"
observable = "IC50 at 15 min"
result = "> 20 µM"

[[record]]
compound = "C[C@@H](CO)NC(=O)c1ccccc1NC(=O)Nc1nc2c(s1)CN(c1cncc(S(C)(=O)=O)c1)CC2"
tested_target = "CYP1A2, CYP2C9, CYP2C19, CYP2D6 and CYP3A4 (one value for the five species)"
observable = "IC50 at 15 min"
result = "≥ 10 µM"

[[record]]
compound = "COc1cc(N2CCc3nc(NC(=O)NC4CCCCC4C(=O)NC(C)C)sc3C2)nc(OC)n1 (stereo not drawn)"
tested_target = "CYP1A2, CYP2C9, CYP2C19, CYP2D6 and CYP3A4 (one value for the five species)"
observable = "IC50 at 15 min"
result = "≥ 10 µM"

[[record]]
compound = "COc1cc(N2CCc3nc(NC(=O)Nc4ccccc4C(=O)NC(C)C)sc3C2)cc(OC)n1"
tested_target = "CYP1A2, CYP2C9, CYP2C19, CYP2D6 and CYP3A4 (one value for the five species)"
observable = "IC50 at 15 min"
result = "> 20 µM"

[[record]]
compound = "COc1cc(N2CCc3nc(NC(=O)Nc4ccccc4C(=O)C(C)C)sc3C2)nc(OC)n1"
tested_target = "CYP1A2, CYP2C9, CYP2C19, CYP2D6 and CYP3A4 (one value for the five species)"
observable = "IC50 at 15 min"
result = "≥ 10 µM"

[[record]]
compound = "COc1ccc(N2CCc3nc(NC(=O)Nc4ccccc4C(=O)NC(C)CO)sc3C2)cc1OC (stereo not drawn)"
tested_target = "CYP1A2, CYP2C9, CYP2C19, CYP2D6 and CYP3A4 (one value for the five species)"
observable = "IC50 at 15 min"
result = "≥ 10 µM"

[[record]]
compound = "CC(CO)NC(=O)c1ccccc1NC(=O)Nc1nc2c(s1)CN(c1cccc(F)c1)CC2 (stereo not drawn)"
tested_target = "CYP1A2, CYP2C9, CYP2C19, CYP2D6 and CYP3A4 (one value for the five species)"
observable = "IC50 at 15 min"
result = "≥ 10 µM"

[[record]]
compound = "COc1cc(N2CCc3nc(NC(=O)Nc4cn(C)nc4C(=O)NC(C)C)sc3C2)nc(OC)n1"
tested_target = "CYP1A2, CYP2C9, CYP2C19, CYP2D6 and CYP3A4 (one value for the five species)"
observable = "IC50 at 15 min"
result = "≥ 10 µM"

[[record]]
compound = "COc1cc(C2CCc3nc(NC(=O)Nc4ccccc4C(=O)NC(C)C)sc3C2)nc(OC)n1 (stereo not drawn)"
tested_target = "CYP1A2, CYP2C9, CYP2C19, CYP2D6 and CYP3A4 (one value for the five species)"
observable = "IC50 at 15 min"
result = "> 20 µM"

